# Tgt: cathepsin B (Homo sapiens, UniProt P07858)
# Assay method text: Inhibitory activity assay against cathepsin B (enzyme assay)
# Type: biochemical
# Recorded conditions: Z-Arg-Arg-AMC 40 μM, enzyme 1 nM, pH 6.0, 90 minutes
Test readout: IC50

Worked set:
CCN1CCN(c2ccc(-c3ccc(NC(=O)NC4(c5ccnc(C#N)n5)CCCCC4)cc3)cc2)CC1 [Example 160]	1840 nM
N#Cc1nccc(C2(NC(=O)Nc3cccc4ccccc34)CCCC2)n1 [Example 74]	> 10000 nM
CN(C(=O)NC1(c2ccnc(C#N)n2)CCCCC1)c1ccccc1 [Example 104]	> 10000 nM
N#Cc1nccc(C2(NC(=O)NCc3ccccc3F)CCCC2)n1 [Example 40]	> 10000 nM
N#Cc1nccc(C2(NC(=O)Nc3ccc(-c4ccc(C(=O)NCCc5c[nH]cn5)cc4)cc3)CCCCC2)n1 [Example 184]	2150 nM

Response field IC50 (cathepsin B (Homo sapiens, UniProt P07858)) for item N#Cc1nccc(C2(NC(=O)Nc3ccc(Nc4ccccc4)cc3)CCCCC2)n1 [Example 101] : > 10000 nM

Response field IC50 (cathepsin B (Homo sapiens, UniProt P07858)) for item COCCOCc1ccc(-c2ccc(NC(=O)NC3(c4ccnc(C#N)n4)CCCCC3)cc2)cc1 [Example 157] : > 10000 nM

Response field IC50 (cathepsin B (Homo sapiens, UniProt P07858)) for item N#Cc1nccc(C2(NC(=O)OCc3ccc(F)cc3)CCCCC2)n1 [Example 27] : > 10000 nM

Response field IC50 (cathepsin B (Homo sapiens, UniProt P07858)) for item N#Cc1nccc(C2(NC(=O)OCc3ccc(Br)cc3)CCCC2)n1 [Example 2] : > 10000 nM

---

# Tgt: cathepsin K (Homo sapiens)
# Sequence (P43235 115-329): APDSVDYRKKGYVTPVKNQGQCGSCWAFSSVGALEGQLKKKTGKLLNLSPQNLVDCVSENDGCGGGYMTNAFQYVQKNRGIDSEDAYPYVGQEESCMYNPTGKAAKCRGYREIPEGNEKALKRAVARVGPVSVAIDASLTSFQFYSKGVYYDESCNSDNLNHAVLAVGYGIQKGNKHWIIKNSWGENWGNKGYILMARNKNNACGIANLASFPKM
# Assay method text: Inhibitory activity assay against cathepsin K (enzyme assay)
# Assay type: biochemical
# Recorded conditions: Z-Phe-Arg-AMC 10 μM, enzyme 1 nM, pH 5.5, 30 minutes
Below, each entry is listed alongside its reported IC50.
Write the answer as a number in nM, unit excluded.

Worked set:
CS(=O)(=O)c1ccc(-c2ccc(NC(=O)NC3(c4ccnc(C#N)n4)CCCCC3)cc2F)cc1	8
N#Cc1nccc(C2(NC(=O)Nc3ccc(-c4ccc(C(=O)NCCn5nccn5)cc4)c(F)c3)CCCCC2)n1	16.1
N#Cc1nccc(C2(NC(=O)Nc3ccccc3O)CCCCC2)n1	63.2
N#Cc1nccc(C2(NC(=O)OCc3ccc(C(F)(F)F)cc3)CCCCC2)n1	37.9
COC(=O)CCC#Cc1ccc(-c2ccc(NC(=O)NC3(c4ccnc(C#N)n4)CCCCC3)cc2)cc1	136

The compound listed as "N#Cc1nccc(C2(NC(=O)Nc3ccc(-c4ccc(CC(=O)O)cc4)cc3)CCCCC2)n1" shows IC50 equal to 61.1

The compound listed as "Cc1ccccc1NC(=O)NC1(c2ccnc(C#N)n2)CCCC1" shows IC50 equal to 113

The compound listed as "N#Cc1nccc(C2(NC(=O)Nc3ccc(-c4ccc(C5CCN(C6CC6)CC5)cc4)c(F)c3)CCCCC2)n1" shows IC50 equal to 0.3
